Test: OVX rat study: serum and liver lycopene by HPLC
Assay type: in vivo, Wistar rats
Details: female, Wistar, rat, serum, 45 mg/kg/day; OVX rats, at 12 weeks, 45 mg/kg body weight per day oral; read-out: Serum lycopene levels
OUTCOME MEASURE: concentration at 12 weeks (nM)
Number in nM, nothing else.

# lookup: concentration at 12 weeks of CC(C)=CCC/C(C)=C/C=C/C(C)=C/C=C/C(C)=C/C=C/C=C(C)/C=C/C=C(C)/C=C/C=C(\C)CCC=C(C)C
71.5

These measurements were taken from patent US9956181B2.
